ASSAY_COMMENT: Caco-2 permeability
Assay type: in vitro ADME
CONDITION_DESCRIPTION: human; Caco-2, pH 6.5/7.4; 1.0E-05 M
PROPERTY: Papp A→B at 10 µM (×10⁻⁶ cm/s)
Give the value, in units of ×10⁻⁶ cm/s, as a plain number.

So what does the record say about Papp A→B at 10 µM for CC1(C)C(=O)N(CCN2CCN(c3cccc(F)c3)CC2)C(=O)c2ccccc21 [Compound 3] ?
7.7

====

ASSAYED_SYSTEM: alpha 2B-AR (Homo sapiens, UniProt P18089)
Sequence (P18089 whole entry): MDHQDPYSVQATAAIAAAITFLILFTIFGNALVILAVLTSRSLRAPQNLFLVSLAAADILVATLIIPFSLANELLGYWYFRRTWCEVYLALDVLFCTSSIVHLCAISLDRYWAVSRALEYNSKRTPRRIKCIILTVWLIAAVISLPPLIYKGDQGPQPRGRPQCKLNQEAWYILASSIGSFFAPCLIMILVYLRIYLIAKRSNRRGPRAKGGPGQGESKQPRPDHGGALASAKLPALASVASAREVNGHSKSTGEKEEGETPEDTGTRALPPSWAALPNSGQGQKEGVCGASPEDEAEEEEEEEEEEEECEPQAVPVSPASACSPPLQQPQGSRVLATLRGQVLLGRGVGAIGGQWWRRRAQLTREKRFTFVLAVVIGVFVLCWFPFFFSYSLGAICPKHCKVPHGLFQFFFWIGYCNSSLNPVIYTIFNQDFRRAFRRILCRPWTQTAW
ASSAY_COMMENT: Intrinsic activity assay, antagonist mode, cells with stable expression of the α2B-adrenoceptor
CONDITION_DESCRIPTION: antagonist potency, read-out: Antagonist mode (IC50 ± SEM)
Item-by-item account of IC50
Answer in nM, number only, no unit symbol.

Take a look at these entries with their results.
[
  {
    "MOLECULE": "CC1(C)Oc2cccc(N3CCN(CCN4C(=O)c5ccccc5C(C)(C)C4=O)CC3)c2O1 [Compound 9]",
    "ASSAY_RESULT": 47
  },
  {
    "MOLECULE": "CC1(C)C(=O)N(CCN2CCN(c3cccc(F)c3)CC2)C(=O)c2ccccc21 [Compound 3]",
    "ASSAY_RESULT": 61
  },
  {
    "MOLECULE": "CC1(C)C(=O)N(CCN2CCN(c3cccc4[nH]c(=O)oc34)CC2)C(=O)c2ccccc21 [Compound 10]",
    "ASSAY_RESULT": 61
  },
  {
    "MOLECULE": "CC1(C)C(=O)N(CCN2CCN(c3cccc(Cl)c3)CC2)C(=O)c2ccccc21 [Compound 4]",
    "ASSAY_RESULT": 251
  }
]

// returns reported IC50 for input CC1(C)C(=O)N(CCN2CCN(c3cccc(O)c3)CC2)C(=O)c2ccccc21 [Compound 7]
758

Item under review: COc1ccccc1N1CCN(CCN2C(=O)c3ccccc3C(C)(C)C2=O)CC1 [ARC-239, reference compound] . Reported IC50?
8.4

====

ASSAY_COMMENT: Aqueous solubility (Eurofins bioavailability panel)
Format: physicochemical
CONDITION_DESCRIPTION: fassgf or other biorelevant, kinetic from dmso stock; simulated intestinal fluid; test concentration 2.0E-04 M
PROPERTY: solubility (µM)
Give the quantity in µM, number only.

Requested read-out: solubility. Entry: CC1(C)C(=O)N(CCN2CCN(c3cccc(F)c3)CC2)C(=O)c2ccccc21
68

====

ASSAY_COMMENT: Metabolic stability (liver microsomes, human)
Format: in vitro ADME
CONDITION_DESCRIPTION: 1.0E-07 M
PROPERTY: half-life at 100 nM
Provide a numeric answer, followed by its unit.

Which half-life at 100 nM value is on record for CC1(C)C(=O)N(CCN2CCN(c3cccc(F)c3)CC2)C(=O)c2ccccc21 ?
14.1 min

====

ASSAY_COMMENT: Metabolic stability (liver microsomes, human)
Assay type: in vitro ADME
CONDITION_DESCRIPTION: 1.0E-07 M, read-out: Intrinsic clearance
PROPERTY: microsomal CLint at 100 nM (µL/min/mg)
Give your result in µL/min/mg as a bare value.

What value of measured microsomal CLint at 100 nM is listed for CC1(C)C(=O)N(CCN2CCN(c3cccc(F)c3)CC2)C(=O)c2ccccc21 ?
14
